# Tested on: NCI-H226
# ASSAY_TEXT: NCI tumour cell line growth inhibition, 48 h
Calls of active or inactive are those of the source. Rule as the data show it: active = GI50 up to about 1.1 µM and inactive = higher.
MEASURED_PROPERTY: GI50

// solved cases for GI50 follow
Req: State the recorded GI50 for this entry: Nc1nc2c(ncn2C2OC(CO)C(O)C2O)c(=O)o1 (configuration not stated)
Resp: > 100 µM (inactive)

Req: Repeat for the following compound: CSc1c(C#N)c(N)nc2c(/N=N\c3ccc(Cl)cc3)c(N)nn12
Resp: 16.9 µM (inactive)

Req: Repeat for the following compound: Brc1ccc(-c2ccc(-c3ccc(-c4ccc(Br)s4)s3)s2)s1
Resp: 54.1 µM (inactive)

Req: Repeat for the following compound: COC1=C(NC(C)=O)C(=O)c2nc3n(c2C1=O)CCC3
Resp: 26.7 µM (inactive)

---
Req: State the recorded GI50 for this entry: CC(=O)NC(C)(C)C1CC=C(C)CC1 (configuration not stated)
Resp: > 100 µM (inactive)

Req: Repeat for the following compound: Cc1nc2ccccc2c(=O)n1-c1ccccc1F
Resp: > 100 µM (inactive)

----------
# System: SK-MEL-5
# ASSAY_TEXT: NCI tumour cell line growth inhibition, 48 h
Activity calls are given as the source filed them. Rule as the data show it: active = GI50 up to about 1.1 µM and inactive = higher.
MEASURED_PROPERTY: GI50

// solved cases for GI50 follow
Req: State the recorded GI50 for this entry: O=c1cccc2n1C[C@H]1CNC[C@H]2C1
Resp: > 100 µM (inactive)

Req: Repeat for the following molecule: Cc1ccccc1N(C)S(=O)(=O)c1ccccc1[N+](=O)[O-]
Resp: 15.4 µM (inactive)

Req: Repeat for the following molecule: O=[N+]([O-])c1ccc(Nc2nc3ccccc3s2)cc1
Resp: 21.6 µM (inactive)

---
Req: State the recorded GI50 for this entry: COC(=O)c1ccccc1/C=C1\Cc2c(C)cc(C)cc2C1=O
Resp: > 100 µM (inactive)

Req: Repeat for the following molecule: c1ccc2nc3c(nc2c1)sc1nc2ccccc2n13
Resp: > 100 µM (inactive)

Req: Repeat for the following molecule: CN1COCc2c1ccc1cc3ccc4c(c3nc21)COCN4S(C)(=O)=O
Resp: > 100 µM (inactive)

Req: Repeat for the following molecule: N#CNC1=NC(CCCC(=O)Nc2cccc([N+](=O)[O-])c2)=C(c2nc3ccccc3[nH]2)C(N)N1 (stereo unspecified)
Resp: > 100 µM (inactive)

Req: Repeat for the following molecule: CCOC(=O)CC(c1ccccc1)C(C)(C(=O)OCC)C(=O)OCC (stereo unspecified)
Resp: > 100 µM (inactive)

----------
# Tested on: UACC-62
# ASSAY_TEXT: NCI tumour cell line growth inhibition, 48 h
The source made the active and inactive calls. No stated cut-off is given here; in the data, active = GI50 up to about 1.1 µM and inactive = higher.
# GI50 per record follows

Req: State the recorded GI50 for this entry: C#CCSC(C=C=C)P(=O)(OC(C)C)OC(C)C (stereo unspecified)
Resp: > 100 µM (inactive)

Req: Repeat for the following molecule: CC1C2CC(CC2N)C1(C)C (stereo unspecified)
Resp: > 100 µM (inactive)

Req: Repeat for the following molecule: CC(=O)OC[C@]1(C(=O)C(O)c2ccoc2)[C@H](C)CC[C@@]23COC(=O)C2=CCC[C@@H]31 (stereo partly specified)
Resp: > 10 µM (inactive)

Req: Repeat for the following molecule: Cc1cc(O)nc2c3c(ccc12)OC(C)(C)C=C3
Resp: 5.01 µM (inactive)

Req: Repeat for the following molecule: C=C(CO)CC(O)c1cc(OC)ccc1OC (stereo unspecified)
Resp: > 100 µM (inactive)

Req: Repeat for the following molecule: N#C/C(=C1\OC(=N)C(c2ccc(Cl)cc2)=C1O)c1ccc(Cl)cc1
Resp: 14.2 µM (inactive)

Req: Repeat for the following molecule: CC1(c2nc3ccccc3[nH]2)CCC(C(N)=O)C(C)(C)O1 (stereo unspecified)
Resp: > 100 µM (inactive)

Req: Repeat for the following molecule: COC(=O)c1c(O)ccc2[nH]c3c(O)c4ccccc4cc3c12
Resp: 61.4 µM (inactive)

Req: Repeat for the following molecule: C=CC(=O)NCCSCCCOC1(C(=O)O)CC(O)C(NC(C)=O)C(C(O)C(O)CO)O1 (stereo unspecified)
Resp: > 100 µM (inactive)

Req: Repeat for the following molecule: NCCCNC1(c2cc3ccccc3s2)CCCCC1
Resp: 1.92 µM (inactive)

With those in mind, consider the next molecule.
Req: State the recorded GI50 for this entry: COC1=C(NC(C)=O)C(=O)c2nc3n(c2C1=O)CCC3
Resp: 18.2 µM (inactive)

----------
# Tested on: NCI-H522
# ASSAY_TEXT: NCI tumour cell line growth inhibition, 48 h
Calls of active or inactive are those of the source. Cut-off read from the data, not from the text of the source: active = GI50 up to about 1.1 µM and inactive = higher.
The reply should be one of these categories: active, inactive

Req: Identify the outcome logged in this assay for the molecule shown: CC(=O)O[C@H]1C[C@H](O[C@H]2[C@@H](O)C[C@H](O[C@H]3[C@@H](O)C[C@H](O[C@H]4CC[C@@]5(C)[C@H](CC[C@@H]6[C@@H]5CC[C@]5(C)[C@@H](C7=CC(=O)OC7)CC[C@]65O)C4)O[C@@H]3C)O[C@@H]2C)O[C@H](C)[C@H]1O[C@@H]1O[C@H](CO)[C@@H](O)[C@H](O)[C@H]1O
Resp: active

----------
# System: NCI-H23
# ASSAY_TEXT: NCI tumour cell line growth inhibition, 48 h
Activity calls are given as the source filed them. No stated cut-off is given here; in the data, active = GI50 up to about 1.1 µM and inactive = higher.
MEASURED_PROPERTY: GI50

Req: State the recorded GI50 for this entry: COc1ccc(NC2Oc3cc4c(cc3C(c3cccc(OC)c3OC)C2C)OCO4)cc1 (stereo not drawn)
Resp: 11.9 µM (inactive)

---
Req: State the recorded GI50 for this entry: O=c1[nH]cc(NCCCl)c(=O)[nH]1
Resp: > 100 µM (inactive)

Req: Repeat for the following molecule: CCCCSCC(NC(=O)/C=C/c1c(C)[nH]c(=O)[nH]c1=O)C(=O)OC (stereo not drawn)
Resp: 90.8 µM (inactive)

----------
# Test system: NCI-H226
# ASSAY_TEXT: NCI tumour cell line growth inhibition, 48 h
Calls of active or inactive are those of the source. No stated cut-off is given here; in the data, active = GI50 up to about 1.1 µM and inactive = higher.
The reply should be one of these categories: active, inactive

Req: Identify the outcome logged in this assay for the compound shown: CCCC1CC(=O)NC(=O)C1C(=O)OC(C)(C)C (stereo not drawn)
Resp: inactive

Req: Repeat for the following compound: O=C(O)c1ccc(S(=O)(=O)c2ccccc2[N+](=O)[O-])cc1
Resp: inactive

Req: Repeat for the following compound: N=S(c1ccccc1[N+](=O)[O-])c1ccccc1[N+](=O)[O-]
Resp: inactive

Req: Repeat for the following compound: Brc1ccc2c(c1)-c1nc3c(cc1CC2)CCc1ccc(Br)cc1-3
Resp: inactive

Req: Repeat for the following compound: CC1CC2=Nc3ccccc3NC(c3ccccc3)C2=C(O)O1 (stereo not drawn)
Resp: inactive

---
Req: Identify the outcome logged in this assay for the compound shown: Cc1c(CNc2ccc(C(=O)NC(CCCNC(=O)c3ccccc3C(=O)O)C(=O)O)cc2)cnc2nc(N)nc(N)c12 (stereo not drawn)
Resp: active

Req: Repeat for the following compound: C#CCn1c(=O)c(I)cn(/C(=C/C(=O)OCC)C(=O)OCC)c1=O
Resp: inactive

Req: Repeat for the following compound: Cc1c2c(n(CCc3ccccc3)c1C)N(C)N=C(C#N)S2(=O)=O
Resp: inactive

Req: Repeat for the following compound: O=C(Nc1ccc(Cl)c(C(F)(F)F)c1)C(=O)c1c(O)c2ccccc2oc1=O
Resp: inactive

----------
# System: COLO 205
# ASSAY_TEXT: NCI tumour cell line growth inhibition, 48 h
The source made the active and inactive calls. No stated cut-off is given here; in the data, active = GI50 up to about 1.1 µM and inactive = higher.
# GI50 per record follows

Req: State the recorded GI50 for this entry: CCOP(=O)(CCCC(O)CNc1nc(N)nc(Cl)c1/N=N/c1ccc(Cl)cc1)OCC (configuration not stated)
Resp: 6.64 µM (inactive)

Req: Repeat for the following compound: C[C@H](Nc1nc(N)c(N=O)c(=O)n1C)C(=O)O
Resp: > 10 µM (inactive)

----------
# Test system: SNB-19
# ASSAY_TEXT: NCI tumour cell line growth inhibition, 48 h
Activity calls are given as the source filed them. Cut-off read from the data, not from the text of the source: active = GI50 up to about 1.1 µM and inactive = higher.
MEASURED_PROPERTY: GI50

// solved cases for GI50 follow
Req: For the record CN(OC(=O)CC(=O)c1ccccc1)C(=O)Cc1ccccc1 , what value of GI50 is listed for SNB-19?
Resp: > 100 µM (inactive)

Req: Repeat for the following compound: CCOC(=O)C1(C/C=C/CBr)Cc2ccccc2C1=O (stereo not drawn)
Resp: 5.45 µM (inactive)

With those in mind, consider the next compound.
Req: For the record C/C=C1/C[C@@H](C)[C@@](C)(O)C(=O)OCC2=CC[N+]3([O-])CC[C@@H](OC1=O)[C@@H]23 (stereo partly drawn) [SENECIONINE N-OXIDE] , what value of GI50 is listed for SNB-19?
Resp: > 100 µM (inactive)

----------
# Test system: HT-29
# ASSAY_TEXT: NCI tumour cell line growth inhibition, 48 h
Active and inactive are the calls of the source. Cut-off read from the data, not from the text of the source: active = GI50 up to about 1.1 µM and inactive = higher.
# GI50 per record follows

// solved cases for GI50 follow
Req: State the recorded GI50 for this entry: C(=N\c1ccc2c(c1)Cc1ccccc1-2)/c1ccccn1
Resp: 63.1 µM (inactive)

Req: Repeat for the following compound: [N-]=[N+]=NCc1cccc(Nc2cc(=O)[nH]c(=O)[nH]2)c1
Resp: > 100 µM (inactive)

Req: Repeat for the following compound: C#CCOCn1cc(C)c(=O)[nH]c1=O
Resp: > 100 µM (inactive)

Req: Repeat for the following compound: Cn1c(=O)c2c(ncn2CCCCn2ccnc2[N+](=O)[O-])n(C)c1=O
Resp: > 100 µM (inactive)

Req: Repeat for the following compound: Cn1cnc([N+](=O)[O-])c1Sc1nc2cc([N+](=O)[O-])ccc2[nH]1
Resp: 36.4 µM (inactive)

Req: Repeat for the following compound: CC(C)CC(NC(=O)C(O)C(N)Cc1ccccc1)C(=O)O (stereo not given)
Resp: > 100 µM (inactive)

---
Req: State the recorded GI50 for this entry: O=C(CSCC(=O)N/N=C/c1cccs1)N/N=C/c1cccs1
Resp: > 100 µM (inactive)

Req: Repeat for the following compound: CC1(C)CC23C4COC(=O)C2CCC1C3CC4=O (stereo not given)
Resp: 22.9 µM (inactive)

Req: Repeat for the following compound: C#CCSC(C=C=C)P(=O)(OC(C)C)OC(C)C (stereo not given)
Resp: 33 µM (inactive)

Req: Repeat for the following compound: CCC1=CCN(c2cc(C)ccn2)OC1c1ccc(OC)cc1 (stereo not given)
Resp: 21.6 µM (inactive)
